The entries below come with measured IC50 values attached.
- Target of assay: recombinant human 15-PGDH (Homo sapiens, UniProt P15428)
- Construct: purchased R&D Systems
- Sequence (P15428 whole entry): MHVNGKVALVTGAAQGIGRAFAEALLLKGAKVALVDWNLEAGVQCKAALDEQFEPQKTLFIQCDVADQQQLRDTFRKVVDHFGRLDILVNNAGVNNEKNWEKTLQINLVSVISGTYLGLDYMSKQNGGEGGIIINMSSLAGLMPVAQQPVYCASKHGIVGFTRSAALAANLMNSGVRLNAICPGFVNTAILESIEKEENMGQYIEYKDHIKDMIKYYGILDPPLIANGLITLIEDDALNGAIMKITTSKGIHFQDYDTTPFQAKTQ
- Test summary: 15-PGDH enzyme inhibition test
- Assay type: biochemical
- Condition info: 4 nM recombinant human 15-PGDH, 30 μM PGE2, 1 mM NAD+, 60 minutes after starting the reaction; read-out: IC50 Value

Query :: Report measured IC50 on recombinant human 15-PGDH (Homo sapiens, UniProt P15428); entry: `COC(=O)c1ccc(N2CCN(c3ccn4c(=O)n(C)nc4c3)c3ncc(C(=O)N4CCC(F)(F)CC4)cc32)cc1`
Result :: 10 to 100 nM

Query :: Report measured IC50 on recombinant human 15-PGDH (Homo sapiens, UniProt P15428); entry: `C[C@@H]1COc2cc(C(=O)N3CCCCC3)ccc2N(c2ccn3c(=O)n(C)nc3c2)C1`
Result :: < 10 nM

Query :: Report measured IC50 on recombinant human 15-PGDH (Homo sapiens, UniProt P15428); entry: `CCN1Cc2cc(N3CCCc4cc(C(=O)N5CCCC5)cnc43)ccc2C1=O`
Result :: < 10 nM

Query :: Report measured IC50 on recombinant human 15-PGDH (Homo sapiens, UniProt P15428); entry: `O=C(c1cnc2c(c1)OCCN2c1ccc2c(=O)[nH]ccc2c1)N1CCCCC1`
Result :: < 10 nM

Query :: Report measured IC50 on recombinant human 15-PGDH (Homo sapiens, UniProt P15428); entry: `CN1Cc2cc(N3CCOc4cc(C(=O)C5CCCCC5)cnc43)ccc2C1=O`
Result :: < 10 nM

Query :: Report measured IC50 on recombinant human 15-PGDH (Homo sapiens, UniProt P15428); entry: `O=C(c1cnc2c(c1)CCCN2c1ccn2c(=O)[nH]nc2c1)N1CCC[C@@H](CF)C1`
Result :: < 10 nM

Query :: Report measured IC50 on recombinant human 15-PGDH (Homo sapiens, UniProt P15428); entry: `O=C(c1cnc2c(c1)CCCN2c1ccc(-c2nn[nH]n2)cc1)N1CCCCC1`
Result :: < 10 nM

Query :: Report measured IC50 on recombinant human 15-PGDH (Homo sapiens, UniProt P15428); entry: `CN1C(=O)c2ccc(N3CCOc4cc(C(=O)N5CCCCC5)cnc43)cc2C1=O`
Result :: < 10 nM
